- Tested on: PBMC
- assay_comment: 193 ssRNA 4mer-motif library screen: IL-12 (IL-12p40) production in PBMC of six donors, poly-L-Arg complexation, ELISA at 44 hours, IL-12 index and adjusted IL-12 index
- Type: cell-based, human
- Set-up: key: IL-12 index (ratio to 9.2sense) minus donor mean, averaged over 6 donors
- cond: 193 ssRNA oligonucleotide library; data from six individual donors summarized; ascending order
Class membership depends on Adjusted IL-12 index Mean alone; the intervals are bin 1 (below -0.5), bin 2 (-0.5 to below -0.04), bin 3 (-0.04 or more)

Incoming: Classify this sequence: AAAAAAAUGUCAAAAAAAA (RNA, backbone not given here) [ANP-Oligo 179]
Outgoing: bin 3

Incoming: // bin(item) where item = AAAAAAAACUUAAAAAAAA (RNA, backbone not given here) [ANP-Oligo 025]
Outgoing: bin 2

Incoming: Hi, small favor: classify AAAAAAACUACAAAAAAAA (RNA, backbone not given here) [ANP-Oligo 086] by its Adjusted IL-12 index Mean when you get a moment.
Outgoing: bin 2

Incoming: Kindly state the category for this sequence: AAAAAAAAAAAAAAAAAAA (RNA, backbone not given here) [ANP-Oligo 001]
Outgoing: bin 2

Where these numbers come from: patent US8815503B2
